- assay.text: Clearance in Sprague-Dawley rat at 1 mg/kg, iv
- Assay type: ADME, organism-based
- Design: dose 1 mg/kg, route intravenous
- condition.context: in vivo
reported.endpoint: clearance (mL/min/kg)

- compound: "CC(C)(C)C#Cc1cc(N2C(=O)[C@@H](CCO)OC[C@H]2C2CCCCC2)c(C(=O)O)s1 (relative stereo)"
  reported.endpoint: "clearance"
  measured: 27
- compound: "CC(C)(C)C#Cc1cc(N2C(=O)[C@@H](CCCO)OC[C@H]2C2CCCCC2)c(C(=O)O)s1 (relative stereo)"
  reported.endpoint: "clearance"
  measured: 38
- compound: "C[C@@H](O)C[C@H]1OC[C@@H](C2CCCCC2)N(c2cc(C#CC(C)(C)C)sc2C(=O)O)C1=O"
  reported.endpoint: "clearance"
  measured: 14

* * *

- subject.of.test: Nuclear receptor subfamily 1 group I member 2 (Homo sapiens)
- Sequence (O75469 whole entry): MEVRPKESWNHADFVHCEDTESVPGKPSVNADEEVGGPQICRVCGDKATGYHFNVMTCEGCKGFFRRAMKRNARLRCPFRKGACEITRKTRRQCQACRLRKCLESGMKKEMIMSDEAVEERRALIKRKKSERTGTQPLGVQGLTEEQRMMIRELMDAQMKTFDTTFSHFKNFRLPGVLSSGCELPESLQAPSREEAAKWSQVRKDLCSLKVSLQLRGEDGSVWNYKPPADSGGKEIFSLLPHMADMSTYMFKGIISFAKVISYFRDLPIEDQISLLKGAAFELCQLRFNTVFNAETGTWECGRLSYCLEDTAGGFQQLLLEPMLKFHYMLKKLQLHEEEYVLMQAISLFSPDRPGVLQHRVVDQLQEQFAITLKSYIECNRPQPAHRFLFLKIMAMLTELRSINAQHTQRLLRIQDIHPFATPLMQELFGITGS
- assay.text: Activation of PXR (unknown origin) at 10 uM by reporter gene assay relative to rifampicin
- Format: ADME

- compound: "CC(C)(C)C#Cc1cc(N2C(=O)C(C)(C)OC[C@H]2C2CCCCC2)c(C(=O)O)s1"
  Activity, %: 145
- compound: "CC(C)(C)C#Cc1cc(N2C(=O)[C@@](C)(CCO)OC[C@H]2C2CCCCC2)c(C(=O)O)s1 (relative stereo)"
  Activity, %: 77
- compound: "C[C@@H](O)C[C@H]1OC[C@@H](C2CCCCC2)N(c2cc(C#CC(C)(C)C)sc2C(=O)O)C1=O"
  Activity, %: 9
- compound: "CC(C)(C)C#Cc1cc(N2C(=O)[C@](C)(CCCO)OC[C@H]2C2CCCCC2)c(C(=O)O)s1 (relative stereo)"
  Activity, %: 8
- compound: "CC(C)(C)C#Cc1cc(N2C(=O)[C@](C)(CCO)OC[C@H]2C2CCCCC2)c(C(=O)O)s1 (relative stereo)"
  Activity, %: 29
- compound: "CC(C)(C)C#Cc1cc(N2C(=O)[C@@](C)(CCCO)OC[C@H]2C2CCCCC2)c(C(=O)O)s1 (relative stereo)"
  Activity, %: 34
- compound: "CC(C)(C)C#Cc1cc(N2C(=O)[C@@H](CCCO)OC[C@H]2C2CCCCC2)c(C(=O)O)s1 (relative stereo)"
  Activity, %: 5

* * *

- assay.text: AUC in Sprague-Dawley rat at 5 mg/kg, po
- Format: ADME, organism-based
- Design: dose 5 mg/kg, route oral
- condition.context: plasma
Documented AUC across a set of molecules

- molecule: "CC(C)(C)C#Cc1cc(N2C(=O)[C@@H](CCO)OC[C@H]2C2CCCCC2)c(C(=O)O)s1 (relative stereo)"
  AUC (µM·h): 3.37
- molecule: "CC(C)(C)C#Cc1cc(N2C(=O)[C@@H](CCCO)OC[C@H]2C2CCCCC2)c(C(=O)O)s1 (relative stereo)"
  AUC (µM·h): 2.11
- molecule: "C[C@@H](O)C[C@H]1OC[C@@H](C2CCCCC2)N(c2cc(C#CC(C)(C)C)sc2C(=O)O)C1=O"
  AUC (µM·h): 10.6

* * *

- assay.text: Oral bioavailability in beagle dog at 3 mg/kg
- Type: ADME, organism-based, Canis lupus familiaris
- condition.context: in vivo

- compound: "C[C@@H](O)C[C@H]1OC[C@@H](C2CCCCC2)N(c2cc(C#CC(C)(C)C)sc2C(=O)O)C1=O"
  u: "%"
  bioavailability: 43
- compound: "CC(C)(C)C#Cc1cc(N2C(=O)[C@@H](CCCO)OC[C@H]2C2CCCCC2)c(C(=O)O)s1 (relative stereo)"
  u: "%"
  bioavailability: 12
- compound: "CC(C)(C)C#Cc1cc(N2C(=O)[C@@H](CCO)OC[C@H]2C2CCCCC2)c(C(=O)O)s1 (relative stereo)"
  u: "%"
  bioavailability: 27

From: ChEMBL document CHEMBL3351832
